Tested on: T47D (PI3Kα H1047R mutant) cells
experiment: Inhibition of pAKT formation, alphaLISA SureFire Ultra AKT 1/2/3 (pS473), T47D cells
Assay type: cell-based
condition set: T47D (PI3Kα H1047R mutant) cells; inhibition of pAKT (pS473) formation; approximately one hour or 24 hours treatment; read-out: T47D pAKT (H1047R mutant) IC50
measured property: IC50 (nM)
Quick note: give the figure in nM, leave out the unit.

Requested field: IC50. Item: Cc1cc([C@@H](C)Nc2ccccc2C(=O)O)c2nc(N3CCN(c4ccc(C#N)cc4)C[C@H]3C)c(C)c(=O)n2c1 [Example 10-42]
3.09
